Listed below: koff values for each entry.
- Test target: T1, R &D hRGMc-His (human, UniProt Q6ZVN8 36-400)
- T1 construct: Bought (R&D) His-tagged human RGMc; also called human RGMc; not shown: His tag
- T1 sequence: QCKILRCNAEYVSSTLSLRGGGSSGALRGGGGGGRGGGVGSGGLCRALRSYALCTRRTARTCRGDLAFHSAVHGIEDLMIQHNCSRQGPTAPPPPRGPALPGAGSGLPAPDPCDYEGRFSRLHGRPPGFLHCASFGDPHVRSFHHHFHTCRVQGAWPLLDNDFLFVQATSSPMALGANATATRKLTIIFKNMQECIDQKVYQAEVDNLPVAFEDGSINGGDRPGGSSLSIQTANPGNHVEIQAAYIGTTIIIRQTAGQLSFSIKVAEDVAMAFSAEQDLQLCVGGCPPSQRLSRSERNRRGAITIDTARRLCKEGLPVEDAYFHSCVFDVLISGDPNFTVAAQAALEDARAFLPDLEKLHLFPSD
- Protocol text: BIAcore; Ab captured on CM5 chip via anti-hIgG Fc Ab, antigen injected; 1:1 Langmuir fit
Quick reminder: number only, in s⁻¹, skip the unit.

See these solved cases before continuing.
binder="h5F9.AM9 (antibody, V domains shown, also called RGMA-h5F9AM.9; RGMA-h5F9pJP297/pJP 299 hIgG1/K mut) VH: EVQLVESGGGVVQPGRSLRLSCAASGFTFSNYGMNWVRQAPGKGLEWVAMIYYDSSEKHYADSVKGRFTISRDNSKNTLYLQMNSLRAEDTAVYYCARGTTPDYWGQGTMVTVSS VL: DVVLTQSPLSLPVTLGQPASISCRSSQSLADSDGDTFLHWFQQRPGQSPRLLIYAVSHRFSGVPDRFSGSGSGTDFTLKISRVEAEDVGVYYCFQATHDPVTFGQGTKLEIK" units_of_measure=s⁻¹ numeric_value=0.0107
binder="h5F9.AM4 (antibody, V domains shown, also called RGMA-h5F9AM.4; RGMA-h5F9Vh7a/pJP29 1 hIgG1/K mut) VH: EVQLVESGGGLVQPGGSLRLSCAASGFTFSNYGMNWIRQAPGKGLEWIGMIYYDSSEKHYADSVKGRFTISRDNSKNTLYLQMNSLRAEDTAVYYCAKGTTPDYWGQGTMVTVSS VL: DVVLTQSPLSLPVTLGQPASISCRSSQSLESSDGDTFLEWFQQRPGQSPRLLIYDVSTRFSGVPDRFSGSGSGTDFTLKISRVEAEDVGVYYCFQVTHDPVTFGQGTKLEIK" units_of_measure=s⁻¹ numeric_value=0.00104
binder="h5F9.AM8 (antibody, V domains shown, also called RGMA-h5F9AM.8; RGMA-h5F9pJP297/pJP 298 hIgG1/K mut) VH: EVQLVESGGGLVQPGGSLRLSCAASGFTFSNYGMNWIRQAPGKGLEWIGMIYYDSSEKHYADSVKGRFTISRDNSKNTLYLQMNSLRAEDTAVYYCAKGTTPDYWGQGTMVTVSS VL: DVVLTQSPLSLPVTLGQPASISCRSSQSLEESDGYTFLHWFQQRPGQSPRLLIYEVSTRFSGVPDRFSGSGSGTDFTLKISRVEAEDVGVYYCFQATHDPLTFGQGTKLEIK" units_of_measure=s⁻¹ numeric_value=0.00039

Turning to the following binder.
Measured koff of h5F9.AM11 (antibody, V domains shown, also called RGMA-h5F9AM; 11; RGMA-h5F9pJP302/pJP 303 hIgG1/K mut) VH: EVQLVESGGGLVQPGGSLRLSCAASGFTFSNYGMNWVRQAPGKGLEWVSMIYYDSSEKHYADSVKGRFTISRDNSKNTLYLQMNSLRAEDTAVYYCAKGTTPDYWGQGTMVTVSS VL: DVVLTQSPLSLPVTLGQPASISCRSSQSLEDSDGGTFLEWFQQRPGQSPRLLIYDVSSRFSGVPDRFSGSGSGTDFTLKISRVEAEDVGVYYCFQATHDPLSFGQGTKLEIK : 0.0014
